# assay-target: hTLR9 (Homo sapiens)
# Sequence (Q9NR96 26-1032): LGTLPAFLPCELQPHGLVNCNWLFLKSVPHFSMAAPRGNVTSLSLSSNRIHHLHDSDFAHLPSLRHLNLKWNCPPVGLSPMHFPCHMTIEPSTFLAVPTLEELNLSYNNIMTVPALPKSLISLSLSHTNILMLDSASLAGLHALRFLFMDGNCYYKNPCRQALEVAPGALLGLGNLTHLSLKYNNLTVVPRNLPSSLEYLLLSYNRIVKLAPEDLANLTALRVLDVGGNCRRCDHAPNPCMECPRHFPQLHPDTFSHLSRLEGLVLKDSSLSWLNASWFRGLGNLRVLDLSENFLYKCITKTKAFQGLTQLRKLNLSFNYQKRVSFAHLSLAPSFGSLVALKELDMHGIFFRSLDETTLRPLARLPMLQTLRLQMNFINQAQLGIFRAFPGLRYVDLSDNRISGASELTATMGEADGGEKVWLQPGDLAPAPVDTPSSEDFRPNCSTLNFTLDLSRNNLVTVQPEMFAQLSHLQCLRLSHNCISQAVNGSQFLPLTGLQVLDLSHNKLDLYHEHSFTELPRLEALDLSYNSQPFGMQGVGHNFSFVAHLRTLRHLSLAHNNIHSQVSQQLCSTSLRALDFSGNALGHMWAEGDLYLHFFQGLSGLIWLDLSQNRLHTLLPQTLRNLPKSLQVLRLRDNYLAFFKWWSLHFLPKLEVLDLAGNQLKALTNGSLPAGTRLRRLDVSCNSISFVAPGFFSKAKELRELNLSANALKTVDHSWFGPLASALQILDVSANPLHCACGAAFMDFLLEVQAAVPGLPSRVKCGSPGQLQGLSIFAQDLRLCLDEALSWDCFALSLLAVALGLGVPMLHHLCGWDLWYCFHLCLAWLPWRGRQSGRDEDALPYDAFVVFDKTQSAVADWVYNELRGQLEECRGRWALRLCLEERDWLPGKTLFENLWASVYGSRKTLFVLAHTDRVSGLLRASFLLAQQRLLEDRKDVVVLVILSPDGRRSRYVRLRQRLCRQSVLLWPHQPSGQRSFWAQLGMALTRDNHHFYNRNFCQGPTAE
# assay-procedure: HEK293-Blue-hTLR-9 cells assay (SEAP reporter, ODN2006 stimulation)
# Assay type: cell-based
# Parameters: host or cells: HEK293 (HEK-Blue hTLR9)
# assay-context: HEK293-Blue-hTLR9 cells, ODN2006, 20 hrs; read-out: HEK/hTLR9 IC50
# Description: HEK293-Blue-hTLR-9 Cells Assay: A stable HEK293-Blue-hTLR-9 cell line was purchased from InvivoGen (Cat. #: hkb-htlr9, San Diego, Calif., USA). […] The cell culture supernatant SEAP reporter activity was determined using QUANTI-Blue™ kit (Cat. #: rep-qb1, Invivogen, San Diego, Calif., USA) at a wavelength of 640 nm, a detection medium that turns purple or blue in the presence of alkaline phosphatase. […]
For each record, write down the corresponding pIC50.
Answers are plain numbers, as −log10 of the molar value.

Worked examples, 2 molecules total:
> print(dat)
                                   molecule          assay.target  data.value
1  COC1CN(c2nccc(N3CCN(C[C@H]4CN(c5ccc(C#N)c6ncccc56)C[C@@H](C)O4)CC3)n2)C[C@H]1N (stereo in doubt)  hTLR9 (Homo sapiens)        7.49
2  Cc1cc(N2CCN(C[C@H]3CN(c4ccc(C(F)(F)F)c5nccnc45)C[C@@H](C)O3)CC2)nc(N2CCNCC2)n1  hTLR9 (Homo sapiens)        6.89

The following molecules each have a reported value; give each one's pIC50.
1. C[C@@H]1CN(c2ccc(C#N)c3ncccc23)C[C@H](CN2CCN(c3ccnc(NC4CNC4)n3)CC2)O1
2. CO[C@@H]1CN(c2ccc(C3CN(C[C@H]4CN(c5ccc(C#N)n6ncc(F)c56)C[C@@H](C)O4)C3)cn2)C[C@H]1N
3. [2H]c1ccc2c(N3C[C@H](CN4CCN(c5ncc(N6CC(C)(N)C6)cc5C)CC4)O[C@H](C)C3)ccc(C#N)c2n1
4. [2H]c1ccc2c(N3C[C@H](CN4CCN(c5nc(OC)cc(N6CC(C)(N)C6)n5)CC4)O[C@H](C)C3)ccc(C#N)c2n1

Reply:
[7.19, 7.07, 7.11, 6.95]
